Measured values drawn from patent US20240409645A1 for this set.

Target: T1, human IL-2Rα (human, UniProt P01589 22-240, limits assumed)
T1 construct: recombinant protein; also called hu IL-2R; human IL-2Ra
T1 sequence: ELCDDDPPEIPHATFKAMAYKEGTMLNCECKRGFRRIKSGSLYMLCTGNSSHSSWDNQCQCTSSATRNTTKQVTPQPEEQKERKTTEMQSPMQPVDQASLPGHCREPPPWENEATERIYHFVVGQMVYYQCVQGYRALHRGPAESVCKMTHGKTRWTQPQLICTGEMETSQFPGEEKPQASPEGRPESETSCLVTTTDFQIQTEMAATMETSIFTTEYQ
Assay: SPR, P.E. on immobilised antigen
The following binders are listed with their measured koff values.
quantity.name: koff (s⁻¹)

binder="FJ1427_P035MP01D08 (VHH, periplasmic extract; also called clone nr; 60) VHH: EVQLVESGGGLVQAGGSLRLSCAASGGTFRTRNMGWFRRAPGKEREFVAAVSWNVDNKLYAGSVKGRFTISRDNGRNMVYLQMNSLKPEDTAVYYCAADNIPLSSDMRPTATEYDYWGQGTQVTVSS" quantity_name=koff measured_value=0.000842
binder="FJ1427_P035MP01F11 (VHH, periplasmic extract; also called clone nr; 86) VHH: QVQLQESGGGLVQAGDSLRLSCAASGRSFRNYILAWYRQAPGKEREFLAAISWLDGTLYADSVEDRFTISRDNPKNTVHLQMDSLKPEDTAVYYCAADRGPVRPVLAPDVDYWGQGTQVTVSS" quantity_name=koff measured_value=0.00118
binder="12-MP05B12 (VHH, periplasmic extract; also called FJ1427_P035MP05B12) VHH: QVQLVESGGGLVQAGGSLRLSCAASGFTFDGYAIGWFRQAPGKEREGVSYITGSDGSTYYADSVKGRFTISSNNAKNTVYLHMNSLKPDDAAVYYCAIDRLGSRGAYVPIWWRSSDMDLWGKGTLVTVSS" quantity_name=koff measured_value=0.000222
binder="FJ1427_P035MP01D09 (VHH, periplasmic extract; also called clone nr; 68) VHH: QVQLVESGGGLVQPGGSLRLSCAASGFTFSNNFMSWVRQAPGKGLEWVSTISYGGESTTYAESVKGRFTISRDNAKNTLYLQMNNLKPEDTAVYYCAKATSYDSIRSGSRGQGTQVTVSS" quantity_name=koff measured_value=0.00212
binder="FJ1427_P035MP05A10 (VHH, periplasmic extract; also called clone nr) VHH: QLQLVESGGGLVQAGGSLRLSCTASGLTFDGYAIGWFRQAPGKEREGVSYITGSDGSTYYIDSVKGRFTISSDIAKSTVYLQMNSLKPEDTAVYYCAVDRLGSRGLYASSWWRSGDMDLWGKGTLVTVSS" quantity_name=koff measured_value=0.0012
binder="6-MP01G05 (VHH, periplasmic extract; also called FJ1427_P035MP01G05) VHH: QVQLQESGGGLVQAGGSLRLSCAASGRTFSSYAMGWFRQAPGKEREFVAVISWNVDNTEYTDSVKGRFTISRDNDKNMVYLQMNSLKPEDTAVYYCAADSIPLSSDMSPTATEYGYWGQGTQVTVSS" quantity_name=koff measured_value=0.0206
binder="FJ1427_P035MP05C09 (VHH, periplasmic extract; also called clone nr) VHH: QLQLVESGGGLVQAGGSLRLSCAASGFTFDGYAIGWFRQAPGKEREGVSYITGSDGSTYYADSVKGRFTISSNNAKNTVYLHMNSLKPDDAAVYYCAIDRLGSRGAYVPIWWRSSDMDLWGKGTLVTVSS" quantity_name=koff measured_value=0.00609
binder="FJ1427_P035MP05C06 (VHH, periplasmic extract; also called clone nr) VHH: QVQLVESGGGLVQAGGSLRLSCAASGLTFDGYAIGWFRQASGKEREGVSYINGRDGSTFYTDSVKGRFIISSDNAKNTVDLQMNSLKPDDAAVYYCAVDRLGSRGAYVSSWWRSPDMDLWGKGTLVTVSS" quantity_name=koff measured_value=0.000659
